The measured values listed here are drawn from ChEMBL document CHEMBL4152252.

- method_summary: Half life in rat liver cytosol
- Format: ADME, subcellular
Listing of entries alongside the reported half-life.

{"chem_smiles": "CCCCn1cc(C(=O)NCc2ccccc2)c(=O)c2c(F)cc(N3CCOCC3)cc21", "half-life (h)": 7.2}
{"chem_smiles": "CCCCn1cc(C(=O)NCc2ccccc2)c(=O)c2cc(F)c(N3CCOCC3)cc21", "half-life (h)": 5.8}
{"chem_smiles": "CCCCn1cc(C(=O)NCc2ccc(F)cc2)c(=O)c2c(F)cc(N3CCOCC3)cc21", "half-life (h)": 7.7}
{"chem_smiles": "CCCCn1cc(C(=O)NCc2ccc(F)cc2)c(=O)c2cc(F)c(N3CCOCC3)cc21", "half-life (h)": 6.4}
